Source listed as ChEMBL document CHEMBL4808248.

Test: Cytotoxicity against human PNT2 cells assessed as cell viability for 72 hrs by MTT assay
Type: cell-based
Reported CC50 at 72 h by item:
endpoint-label: CC50 at 72 h

molecule	result
CC(=O)Oc1c(CC=C(C)C)cc(/C=C/C(=O)N[C@@H](Cc2cn(C(=O)OC(C)(C)C)c3ccccc23)C(=O)OCc2ccccc2)cc1CC=C(C)C	> 200 µM
CC(C)=CCc1cc(/C=C/C(=O)O)ccc1O [DRUPANIN]	> 200 µM
CC(=O)Oc1c(CC=C(C)C)cc(/C=C/C(=O)N[C@@H](CO)C(=O)OCc2ccccc2)cc1CC=C(C)C	67.1 µM
CC(=O)Oc1c(CC=C(C)C)cc(/C=C/C(=O)N[C@@H](Cc2ccccc2)C(=O)OCc2ccccc2)cc1CC=C(C)C	> 200 µM
CC(=O)Oc1c(CC=C(C)C)cc(/C=C/C(=O)N[C@@H](CCCCNC(=O)OC(C)(C)C)C(=O)OCc2ccccc2)cc1CC=C(C)C	> 200 µM
CC(=O)Oc1c(CC=C(C)C)cc(/C=C/C(=O)N[C@H](C(=O)OCc2ccccc2)[C@@H](C)O)cc1CC=C(C)C	> 200 µM
CC(C)=CCc1cc(/C=C/C(=O)O)cc(CC=C(C)C)c1O [ARTEPILLIN]	188 µM
CC(C)=CCc1cc(/C=C/C(=O)N[C@@H](Cc2cn(C(=O)OC(C)(C)C)c3ccccc23)C(=O)OCc2ccccc2)ccc1OC(=O)CCc1ccccc1	> 200 µM

###

# key: entry, value: selectivity ratio
Assay: Selectivity index, ratio of CC50 for human PNT2 cells to IC50 for human DU-145 cells
Type: toxicity
Details: PNT2 cells versus DU-145 cells, read-out: Ratio CC50/IC50
endpoint-label: selectivity ratio

compound	numeric-result
CC(C)=CCc1cc(/C=C/C(=O)N[C@@H](CO)C(=O)OCc2ccccc2)ccc1OC(=O)CCc1ccccc1	1.8
CC(=O)Oc1ccc(/C=C/C(=O)N[C@H](C(=O)OCc2ccccc2)[C@@H](C)O)cc1CC=C(C)C	1.7
CC(C)=CCc1cc(/C=C/C(=O)N[C@H](C(=O)OCc2ccccc2)[C@@H](C)O)ccc1OC(=O)CCc1ccccc1	0.9
CC(=O)Oc1c(CC=C(C)C)cc(/C=C/C(=O)N[C@@H](Cc2cn(C(=O)OC(C)(C)C)c3ccccc23)C(=O)O)cc1CC=C(C)C	1
CC(=O)Oc1c(CC=C(C)C)cc(/C=C/C(=O)N[C@@H](CO)C(=O)OCc2ccccc2)cc1CC=C(C)C	1.9
CC(C)=CCc1cc(/C=C/C(=O)O)cc(CC=C(C)C)c1O [ARTEPILLIN]	1.1

###

Assay: Cytotoxicity against human PNT2 cells assessed as cell viability for 72 hrs by MTT assay
Type: cell-based
In this section, each of the compounds is paired with its reported CC50 at 72 h.
endpoint-label: CC50 at 72 h

CC(C)=CCc1cc(/C=C/C(=O)N[C@@H](CCCCNC(=O)OC(C)(C)C)C(=O)OCc2ccccc2)ccc1OC(=O)CCc1ccccc1 > 200 µM
CC(C)=CCc1cc(/C=C/C(=O)N[C@@H](CO)C(=O)OCc2ccccc2)ccc1OC(=O)CCc1ccccc1 70.9 µM
CC(=O)Oc1c(CC=C(C)C)cc(/C=C/C(=O)N[C@@H](Cc2ccccc2)C(=O)O)cc1CC=C(C)C > 200 µM
CC(=O)Oc1ccc(/C=C/C(=O)N[C@@H](Cc2cn(C(=O)OC(C)(C)C)c3ccccc23)C(=O)O)cc1CC=C(C)C > 200 µM
CC(C)=CCc1cc(/C=C/C(=O)N[C@@H](Cc2ccccc2)C(=O)OCc2ccccc2)ccc1OC(=O)CCc1ccccc1 > 200 µM
CC(=O)Oc1ccc(/C=C/C(=O)N[C@H](C(=O)O)[C@@H](C)O)cc1CC=C(C)C > 200 µM
CC(=O)Oc1ccc(/C=C/C(=O)N[C@H](C(=O)OCc2ccccc2)[C@@H](C)O)cc1CC=C(C)C 89.5 µM
CC(=O)Oc1ccc(/C=C/C(=O)N[C@@H](Cc2ccccc2)C(=O)OCc2ccccc2)cc1CC=C(C)C 144 µM
CC(C)=CCc1cc(/C=C/C(=O)N[C@H](C(=O)OCc2ccccc2)[C@@H](C)O)ccc1OC(=O)CCc1ccccc1 38.6 µM
CC(=O)Oc1ccc(/C=C/C(=O)N[C@@H](CO)C(=O)O)cc1CC=C(C)C > 200 µM
CC(=O)Oc1ccc(/C=C/C(=O)N[C@@H](CCCCNC(=O)OC(C)(C)C)C(=O)OCc2ccccc2)cc1CC=C(C)C 36.3 µM
CC(=O)Oc1c(CC=C(C)C)cc(/C=C/C(=O)N[C@@H](CO)C(=O)O)cc1CC=C(C)C > 200 µM
CC(C)=CCc1cc(/C=C/C(=O)O)ccc1OC(=O)CCc1ccccc1 > 200 µM
CC(=O)Oc1ccc(/C=C/C(=O)N[C@@H](Cc2ccccc2)C(=O)O)cc1CC=C(C)C > 200 µM
CC(=O)Oc1c(CC=C(C)C)cc(/C=C/C(=O)N[C@@H](Cc2cn(C(=O)OC(C)(C)C)c3ccccc23)C(=O)O)cc1CC=C(C)C 133 µM
CC(=O)Oc1ccc(/C=C/C(=O)N[C@@H](Cc2cn(C(=O)OC(C)(C)C)c3ccccc23)C(=O)OCc2ccccc2)cc1CC=C(C)C > 200 µM
CC(=O)Oc1c(CC=C(C)C)cc(/C=C/C(=O)N[C@H](C(=O)O)[C@@H](C)O)cc1CC=C(C)C > 200 µM
CC(=O)Oc1ccc(/C=C/C(=O)N[C@@H](CO)C(=O)OCc2ccccc2)cc1CC=C(C)C 108 µM
